- ASSAY SYSTEM: EGFR T790ML858R (Homo sapiens, UniProt P00533, L858R/T790M)
- Sequence (P00533 25-1210 T790M/L858R): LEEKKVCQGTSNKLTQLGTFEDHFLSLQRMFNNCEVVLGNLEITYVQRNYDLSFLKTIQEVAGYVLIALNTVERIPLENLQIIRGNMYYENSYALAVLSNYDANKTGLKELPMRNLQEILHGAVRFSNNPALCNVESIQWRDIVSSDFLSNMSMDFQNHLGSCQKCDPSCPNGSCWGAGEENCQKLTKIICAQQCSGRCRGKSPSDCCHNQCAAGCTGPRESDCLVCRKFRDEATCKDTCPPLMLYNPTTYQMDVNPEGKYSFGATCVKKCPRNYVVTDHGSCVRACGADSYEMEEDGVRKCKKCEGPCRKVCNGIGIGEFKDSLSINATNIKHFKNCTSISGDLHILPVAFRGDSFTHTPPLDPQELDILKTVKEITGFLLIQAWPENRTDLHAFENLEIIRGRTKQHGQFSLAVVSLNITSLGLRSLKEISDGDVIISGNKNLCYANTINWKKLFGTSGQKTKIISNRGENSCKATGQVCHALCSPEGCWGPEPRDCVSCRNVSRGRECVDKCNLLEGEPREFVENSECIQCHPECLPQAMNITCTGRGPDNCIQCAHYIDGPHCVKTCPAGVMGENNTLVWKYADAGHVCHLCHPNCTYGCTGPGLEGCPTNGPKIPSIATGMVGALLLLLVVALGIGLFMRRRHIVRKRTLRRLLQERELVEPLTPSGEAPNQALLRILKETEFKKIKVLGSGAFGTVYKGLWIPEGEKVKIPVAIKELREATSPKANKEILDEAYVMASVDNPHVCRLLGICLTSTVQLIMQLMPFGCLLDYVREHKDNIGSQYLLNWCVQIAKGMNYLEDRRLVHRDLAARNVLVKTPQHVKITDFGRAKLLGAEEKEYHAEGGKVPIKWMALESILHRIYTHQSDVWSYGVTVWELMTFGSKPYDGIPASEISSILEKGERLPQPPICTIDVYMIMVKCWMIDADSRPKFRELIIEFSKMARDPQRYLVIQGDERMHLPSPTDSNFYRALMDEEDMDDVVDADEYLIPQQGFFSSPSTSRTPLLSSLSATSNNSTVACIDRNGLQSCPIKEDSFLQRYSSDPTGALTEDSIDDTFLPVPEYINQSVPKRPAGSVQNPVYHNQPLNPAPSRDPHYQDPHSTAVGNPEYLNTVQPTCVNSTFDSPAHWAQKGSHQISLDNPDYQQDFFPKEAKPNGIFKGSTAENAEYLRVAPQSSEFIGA
- ASSAY SUMMARY: EGFR T790ML858R Lance assay
- Format: biochemical
pIC50: −log10 of the molar value.
REPORTED PROPERTY: pIC50

# count of solved cases: 8
C=CC(=O)Nc1cc(-c2c(-c3cnc(N4CCN(C)CC4)s3)[nH]c3ncc(C(=O)OC(C)C)cc23)ccc1C: ≥ 7.00
C=CC(=O)NCc1cccc(-c2c(-c3ccc(N4CCN(C)CC4)cc3)[nH]c3ncc(C(=O)OC(C)C)cc23)c1 [Example 203, 2,2,2-trifluoroacetate]: 6.00 to 6.30
C=CC(=O)Nc1cc(-c2c(-c3cccc(C(=O)N4CCC5(CCNC5=O)CC4)c3)[nH]c3nccc(Cl)c23)ccc1C: ≥ 7.00
C=CC(=O)N1CCOc2ccc(-c3c(-c4cccc(OCCN5CCCC5)c4)[nH]c4nccc(Cl)c34)cc21: ≥ 7.00
C=CC(=O)Nc1cc(-c2c(-c3ccc(CCO)cc3)[nH]c3ncc(C(=O)OC(C)C)cc23)ccc1C: 6.30 to 7.00
C=CC(=O)Nc1cc(-c2c(-c3ccc(N4CCN(C)CC4)cc3)[nH]c3ncc(C(=O)OC(C)C)cc23)c(C)cc1C: 6.30 to 7.00
C=CC(=O)Nc1cc(-c2c(-c3ccc(N4CCN(C)CC4)cc3)[nH]c3ncc(C(=O)OC(C)C)cc23)cc(F)c1C: ≥ 7.00
C=CC(=O)Nc1cc(-c2c(-c3cccc(OCCCN(C)C)c3)[nH]c3nccc(Cl)c23)ccc1C: ≥ 7.00

Proceeding to the next compound to report its pIC50.
Query block: Which measured pIC50 value corresponds to C=CC(=O)N1CCc2ccc(-c3c(-c4ccc(N5CCN(C)CC5)nc4)[nH]c4nccc(Cl)c34)cc21 ?
Result block: ≥ 7.00

====

- ASSAY SYSTEM: EGFR Exon 20 INSNPH Ba/F3 (Homo sapiens, UniProt P00533, DUP771-773, cells depend on it)
- Sequence (P00533 with tags, fused parts or gaps DUP771-773): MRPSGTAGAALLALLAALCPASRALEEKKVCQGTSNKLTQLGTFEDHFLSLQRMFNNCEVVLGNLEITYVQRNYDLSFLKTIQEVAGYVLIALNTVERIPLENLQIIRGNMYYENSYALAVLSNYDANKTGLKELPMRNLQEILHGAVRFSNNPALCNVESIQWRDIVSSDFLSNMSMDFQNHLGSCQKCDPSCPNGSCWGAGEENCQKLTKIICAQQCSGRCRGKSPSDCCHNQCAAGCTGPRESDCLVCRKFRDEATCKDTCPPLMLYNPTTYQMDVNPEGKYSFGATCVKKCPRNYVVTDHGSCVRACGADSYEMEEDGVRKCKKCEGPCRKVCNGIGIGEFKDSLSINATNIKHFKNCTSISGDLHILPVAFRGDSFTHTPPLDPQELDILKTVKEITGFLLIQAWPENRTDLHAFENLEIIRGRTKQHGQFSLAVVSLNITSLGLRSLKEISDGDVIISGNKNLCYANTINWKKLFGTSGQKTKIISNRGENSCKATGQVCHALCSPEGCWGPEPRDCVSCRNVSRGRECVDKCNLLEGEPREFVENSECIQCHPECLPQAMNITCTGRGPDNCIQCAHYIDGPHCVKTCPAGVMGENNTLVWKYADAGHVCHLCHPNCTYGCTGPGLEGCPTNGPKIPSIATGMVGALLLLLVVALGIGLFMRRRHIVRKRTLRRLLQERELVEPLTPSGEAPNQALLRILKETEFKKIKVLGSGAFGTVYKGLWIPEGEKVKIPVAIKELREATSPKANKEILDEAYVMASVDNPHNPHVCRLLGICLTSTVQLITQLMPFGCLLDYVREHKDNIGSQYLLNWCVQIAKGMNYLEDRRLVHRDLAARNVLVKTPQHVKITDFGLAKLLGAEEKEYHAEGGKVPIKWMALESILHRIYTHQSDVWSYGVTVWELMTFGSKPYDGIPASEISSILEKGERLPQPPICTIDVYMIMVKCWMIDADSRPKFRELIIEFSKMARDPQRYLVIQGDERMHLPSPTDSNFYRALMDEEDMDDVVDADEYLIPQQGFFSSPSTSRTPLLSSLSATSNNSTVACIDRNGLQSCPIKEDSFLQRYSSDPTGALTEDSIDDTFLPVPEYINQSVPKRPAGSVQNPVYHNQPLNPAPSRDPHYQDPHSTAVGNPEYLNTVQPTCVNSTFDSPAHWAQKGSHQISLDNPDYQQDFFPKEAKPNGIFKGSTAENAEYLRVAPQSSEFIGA
- ASSAY SUMMARY: EGFR Exon 20 INSNPH Ba/F3 CellTiter-Glo
- Type: cell-based
- TEST CONDITIONS: CellTiter-Glo, 72 h, read-out: EGFR Exon 20 INSNPH Ba/F3 CTG IC50
REPORTED PROPERTY: GI50

Previously resolved entries follow.
C=CC(=O)N1CCc2ccc(-c3c(-c4cccc(OCCN5CCCC5)c4)[nH]c4nccc(Cl)c34)cc21 [Example 64]: 100 to 500 nM
C=CC(=O)Nc1cc(-c2c(-c3cccc(CN4CCOCC4)c3)[nH]c3nccc(Cl)c23)ccc1C [Example 7]: 1000 to 10000 nM
C=CC(=O)Nc1cc(-c2c(-c3cccc(N4CCN(C(C)=O)CC4)c3)[nH]c3ncc(C(=O)OC(C)C)cc23)ccc1C [Example 185]: 1000 to 10000 nM
C=CC(=O)Nc1cc(-c2c(-c3ccnc(N4CCOCC4)c3)[nH]c3nccc(Cl)c23)ccc1C [Example 32]: 500 to 1000 nM
C=CC(=O)Nc1cc(-c2c(-c3ccnc(N4CCOCC4)c3)[nH]c3ncccc23)ccc1C [Example 80]: 1000 to 10000 nM
C=CC(=O)N1CCc2ccc(-c3c(-c4ccnc(N5CCN(C)CC5)c4)[nH]c4nccc(OCC)c34)cc21 [Example 105]: 100 to 500 nM
C/C=C/C(=O)Nc1cc(-c2c(-c3ccc(N4CCN(C)CC4)cc3)[nH]c3nccc(Cl)c23)ccc1C [Example 142, 2,2,2-trifluoroacetate]: 1000 to 10000 nM
C=CC(=O)N1CCOc2ccc(-c3c(-c4ccnc(N5CCN(C)CC5)c4)[nH]c4nccc(Cl)c34)cc21 [Example 98, 2,2,2-trifluoroacetate]: 100 to 500 nM
C=CC(=O)Nc1cc(-c2c(-c3cccc(N4CCOCC4)c3)[nH]c3nccc(Cl)c23)ccc1C [Example 6]: 500 to 1000 nM
C=CC(=O)N1CCc2ccc(-c3c(-c4cccc(CN5CCN(C)CC5)c4)[nH]c4nccc(Cl)c34)cc21 [Example 69]: 100 to 500 nM

Query block: Which GI50 value belongs to C=CC(=O)Nc1cc(-c2c(-c3ccc(C(=O)N4CCOCC4)cc3)[nH]c3nccc(Cl)c23)ccc1C [Example 11] ?
Result block: 100 to 500 nM

Query block: Would you mind telling me what GI50 value was observed for C=CC(=O)Nc1cc(-c2c(-c3ccc(N4CCN(C)CC4)cc3)[nH]c3ncc(C(=O)NCc4cccc(C(N)=O)c4)cc23)ccc1C [Example 133] ?
Result block: > 10000 nM

Query block: What value of measured GI50 is listed for C=CC(=O)N1CCOc2ccc(-c3c(-c4ccc(CN5CCN(C)CC5)cc4)[nH]c4nccc(Cl)c34)cc21 [Example 100] ?
Result block: 500 to 1000 nM

Query block: Given the entry C=CC(=O)Nc1cc(-c2c(-c3ccc(C4CCN(C)CC4)cc3)[nH]c3nccc(OCC)c23)ccc1C [Example 147, 2,2,2-trifluoroacetate] , report its measured GI50.
Result block: 500 to 1000 nM

Query block: Please give the measured GI50 for this compound: C=CC(=O)Nc1cc(-c2c(-c3ccc(N(C)CCN(C)C)cc3)[nH]c3ncc(C(=O)OC(C)C)c(C)c23)ccc1C [Example 204]
Result block: ≤ 100 nM

Query block: Report GI50 for C=CC(=O)Nc1cc(-c2c(-c3cccc(CN4CCN(C(C)=O)CC4)c3)[nH]c3ncccc23)ccc1C [Example 81] please.
Result block: 1000 to 10000 nM

Query block: Reported GI50 for C=CC(=O)N1CCCc2ccc(-c3c(-c4ccc(C5CCN(C)CC5)cc4)[nH]c4nccc(Cl)c34)cc21 [Example 87] : what is it?
Result block: 500 to 1000 nM

Query block: Bench note: what GI50 did C=CC(=O)N1CCOc2ccc(-c3c(-c4ccc(N5CCN(CC)CC5)cc4)[nH]c4nccc(Cl)c34)cc21 [Example 99] show?
Result block: 100 to 500 nM
